These measurements were taken from patent US5156956A.

- MEASUREMENT_TARGET: BTG-3 (Streptomyces cinnamoneus)
- Construct: Ca2+-independent; made as pre-pro-protein
- ASSAY_OVERVIEW: Substrate specificity: synthetic substrates with hydroxylamine
- Type: biochemical
- PARTICULARS: substrate 5 mM, with hydroxylamine
- Description: Measurement of the activity of BTGase is carried out by performing a reaction using benzyloxycarbonyl-L-glutaminyl glycine and hydroxylamine as substrates in the absence of Ca^2+, forming an iron complex with the resulting hydroxamic acid in the presence of trichloroacetic acid, measuring absorption at 525 nm and determining the amount of hydroxamic acid by a calibration curve to calculate the activity. The BTGase activity is measured by the method described below, unless otherwise indicated. […]
Residues, ends and D or L forms follow the SMILES beside them. *: point of attachment. Cbz = O=C(OCc1ccccc1)*
RECORDED_METRIC: Reactivity of substrate with BTG-3 (relative, Table 1)

• NC(=O)CC[C@H](NC(=O)CNC(=O)CNC(=O)OCc1ccccc1)C(=O)NCC(=O)O [CBZ--Gly--Gly--Gln--Gly] (Cbz-GGQG-OH) = 60
• NC(=O)CC[C@H](NC(=O)OCc1ccccc1)C(=O)N[C@@H](CCC(N)=O)C(=O)NCC(=O)O [CBZ--Gln--Gln--Gly] (Cbz-Gln-Gln-Gly-OH) = 35
• NC(=O)CC[C@H](NC(=O)CNC(=O)OCc1ccccc1)C(=O)NCC(=O)NCC(=O)O [CBZ--Gly--Gln--Gly--Gly] (Cbz-GQGG-OH) = 11
• NCC(=O)N[C@@H](CCC(N)=O)C(=O)NCC(=O)O [Gly--Gln--Gly, glycylglutaminyl glycine] (H-Gly-Gln-Gly-OH) = 0
• NC(=O)CC[C@H](NC(=O)OCc1ccccc1)C(=O)NCC(=O)O [CBZ--Gln--Gly, benzyloxycarbonylglutaminyl glycine] (Cbz-Gln-Gly-OH) = 100

###

- MEASUREMENT_TARGET: BTG-3 (Streptomyces cinnamoneus)
- Construct: Ca2+-independent; made as pre-pro-protein
- ASSAY_OVERVIEW: Influence of metal ions on activity
- Format: biochemical
- PARTICULARS: metal ion 1 mM; None = 100; 30 min
- Procedure: Measurement of the activity of BTGase is carried out by performing a reaction using benzyloxycarbonyl-L-glutaminyl glycine and hydroxylamine as substrates in the absence of Ca^2+, forming an iron complex with the resulting hydroxamic acid in the presence of trichloroacetic acid, measuring absorption at 525 nm and determining the amount of hydroxamic acid by a calibration curve to calculate the activity. The BTGase activity is measured by the method described below, unless otherwise indicated. […]
Let's look at some molecules and their measured BTG-3 (%) activity with metal ion.
RECORDED_METRIC: BTG-3 (%) activity with metal ion

• [Cl-].[Cl-].[Zn+2] [ZnCl2] = 24
• [Cl][Cu][Cl] [CuCl2] = 86
• [Cl][Fe]([Cl])[Cl] [FeCl3] = 106
• [Cl-].[Cl-].[Sr+2] [SrCl2] = 100
• CC(=O)[O-].CC(=O)[O-].[Pb+2] [Pb(CH3 COO)2] = 100
• [Ba+2].[Cl-].[Cl-] [BaCl2] = 105
• [Cl][Mn][Cl] [MnCl2] = 97
• [Cl-].[Cl-].[Mg+2] [MgCl2] = 103
• [Cl-].[Cl-].[Co+2] [CoCl2] = 103
• [Cl-].[K+] [KCl] = 105
• [Cl-].[Na+] [NaCl] = 101

###

- MEASUREMENT_TARGET: BTG-1 (Streptomyces mobaraensis, UniProt P81453)
- Construct: BTGase is dissolved in the culture solution and can be harvested from the culture filtrate; endogenous in cells; host or cells: Streptoverticillium mobaraense IFO 13819 (natural producer; purified from culture filtrate)
- ASSAY_OVERVIEW: Influence of metal ions on activity
- Type: biochemical, Streptoverticillium mobaraense IFO 13819
- PARTICULARS: metal ion 1 mM; None = 100; 30 min
Form field: BTG-1 (%) activity with metal ion (one value per entry).
RECORDED_METRIC: BTG-1 (%) activity with metal ion

* [Ba+2].[Cl-].[Cl-] | 101%
* [Cl-].[K+] | 96%
* [Cl-].[Cl-].[Sr+2] | 100%
* [Cl-].[Cl-].[Co+2] | 103%
* [Cl-].[Cl-].[Zn+2] | 15%
* [Cl-].[Na+] | 99%
* [Cl][Fe]([Cl])[Cl] | 96%
* CC(=O)[O-].CC(=O)[O-].[Pb+2] | 97%
* [Cl][Cu][Cl] | 79%

###

- MEASUREMENT_TARGET: BTG-2 (Streptomyces griseocarneus, UniProt A0ABX7RSJ1)
- Construct: Ca2+-independent; made as pre-pro-protein
- Type: biochemical, Streptoverticillium griseocarneum IFO 12776
- PARTICULARS: metal ion 1 mM; None = 100; 30 min
Recorded BTG-2 (%) activity with metal ion by entry
RECORDED_METRIC: BTG-2 (%) activity with metal ion

* [Cl][Cu][Cl] | 82
* [Cl-].[Cl-].[Mg+2] | 104
* [Cl-].[Cl-].[Zn+2] | 24
* CC(=O)[O-].CC(=O)[O-].[Pb+2] | 97
* [Cl-].[Na+] | 102
* [Cl-].[Cl-].[Co+2] | 103
